# Test system: SK-MEL-28
# TEST_DETAILS: NCI tumour cell line growth inhibition, 48 h
Active and inactive are the calls of the source. Rule as the data show it: active = GI50 up to about 1.1 µM and inactive = higher. Where a SMILES comes first, the peptide text is derived from it. [ ]: non-standard residue; d: D form. Aoe = N[C@@H](CCCCCC(=O)[C@@H]1CO1)C(=O)O
Pick one and only one: 1.0 (active), 0.0 (inactive)

What outcome does the record of this test show for CC(=O)OCC1OC(Nc2nc(O)n(C)c(=O)c2-c2csc(N)n2)C(OC(C)=O)C(OC(C)=O)C1OC(C)=O (centres undefined) ?
0.0

Per the records of this test, what outcome belongs to Cc1ccc(C)c(C(=N)c2ccccc2Cc2ccccc2)c1 ?
0.0

Identify the outcome logged in this assay for the molecule shown: O=C1N[C@@H](Cc2ccccc2)C(=O)N2CCC[C@@H]2C(=O)N[C@@H](CCCCCC(=O)[C@@H]2CO2)C(=O)N[C@H]1Cc1ccccc1 [TRAPOXIN B] (cyclo(FF[dP][Aoe]))
1.0

Others:
Tell me the assay call for CC(O)(C#N)CC(O)(C(F)(F)Cl)C(F)(F)Cl (centres undefined) please.
0.0

Tell me the recorded outcome of this test for O=C1CSSCC(=O)Nc2ccccc2N1 .
0.0

Which result was noted for this molecule in the test: CCc1cc(C)cc2[n+]1CC=C2C.[O-][Cl+3]([O-])([O-])[O-]
0.0

Each molecule tested received a call. Report the one for Cc1c(C(=O)NNc2ccccc2)n2c(S)nnc2c2ccccc12 .
0.0

What outcome does the record of this test show for COc1cc2cc(C(=O)Nc3cc4n(n3)-c3ccccc3C4)[nH]c2c(OC)c1OC ?
0.0

Could you check what this test reported for Cc1nc(Nc2ccc(Cl)cc2)sc1C(=O)NNc1ccc([N+](=O)[O-])cc1[N+](=O)[O-] ?
0.0

###

A set of compounds tested on HCT-15, with measured GI50:
Note: unit µM is implicit; provide only the numeric part.

Example entries begin here.
Hello, I am looking for reported GI50 with HCT-15 for CCN(CC)C1CC(O[C@H]2C[C@](O)(C(=O)CO)Cc3c(O)c4c(c(O)c32)C(=O)c2c(OC)cccc2C4=O)OC(C)C1O (stereo not given in full) . Could you help?
0.245

Return GI50 measured with HCT-15 given this compound: C/C=C\C(CC(=O)NCCC1CN(S(=O)(=O)C(F)(F)F)c2ccccc21)CC(=O)OC (stereo not given)
42.8

Hello, I am looking for reported GI50 with HCT-15 for CC(C)[C@]12O[C@H]1[C@@H]1O[C@]13[C@]1(O[C@H]1C[C@H]1C4=C(CC[C@@]13C)C(=O)OC4)[C@@H]2O [TRIPTOLIDE] . Could you help?
0.014

Next item in the queue.
Could you share what GI50 was measured for Cc1cc([C@H](C#N)c2nc3ccccc3[nH]2)nc(Cl)n1 , tested on HCT-15?
25.8

###

# Test system: OVCAR-4
# TEST_DETAILS: NCI tumour cell line growth inhibition, 48 h
Active and inactive are the calls of the source. Cut-off read from the data, not from the text of the source: active = GI50 up to about 1.1 µM and inactive = higher.
QUANTITY_MEASURED: GI50

Example entries and their recorded answers appear below.
For O=C(CSc1nnc[nH]1)C[P+](c1ccccc1)(c1ccccc1)c1ccccc1 , what is its reported GI50?
94 µM (inactive)

Need GI50, item NC1OC(COC(=O)c2ccccc2)C(O)C(OC(=O)c2ccccc2)C1OC(=O)c1ccccc1 (stereo not given)
35.5 µM (inactive)

Please report the recorded GI50 for CN(C)CCN1CCc2c([nH]c3ccccc23)C1c1cccnc1 (stereo not given) .
> 100 µM (inactive)

Record request: GI50 value, item OCCOc1ccccc2cccc1-2
34 µM (inactive)

--- query ---
Any idea what GI50 was measured for CCc1cc(CCC(=O)Nc2c(C)cccc2C)n[nH]1 ?
> 100 µM (inactive)
